# reported EC50 hGIPR 0.5% hP (CreLuc); entries follow
Biological target: T1, human GIP receptor (human, UniProt P48546 22-466)
T1 sequence (looked up): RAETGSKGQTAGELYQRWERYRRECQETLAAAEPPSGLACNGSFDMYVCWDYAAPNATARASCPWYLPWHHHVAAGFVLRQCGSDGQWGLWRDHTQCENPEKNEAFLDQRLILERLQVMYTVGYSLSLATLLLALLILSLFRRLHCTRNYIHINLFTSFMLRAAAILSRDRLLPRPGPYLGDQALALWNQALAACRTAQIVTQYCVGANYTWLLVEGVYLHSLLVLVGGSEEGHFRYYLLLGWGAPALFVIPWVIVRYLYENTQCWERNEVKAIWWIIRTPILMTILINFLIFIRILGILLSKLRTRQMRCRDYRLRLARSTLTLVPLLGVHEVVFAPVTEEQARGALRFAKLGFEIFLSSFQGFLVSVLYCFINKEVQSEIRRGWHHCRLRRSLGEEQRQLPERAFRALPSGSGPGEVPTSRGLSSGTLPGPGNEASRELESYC
Experiment: cell-based or functional assay
Starred links: 1 amine or outer side, 2 acyl side, 3 side chain; linkers in the order of their positions; H or OH if unused. Non-standard residues stand in square brackets, D forms with d. Groups on a side chain read outwards from the residue. No end group written: not given here. *: point of attachment. C20 diacid = O=C(O)CCCCCCCCCCCCCCCCCCC(=O)*; C18 diacid = O=C(O)CCCCCCCCCCCCCCCCC(=O)*; γGlu = O=C(O)[C@H](CCC(=O)[*:2])N[*:1]; AEEA = NCCOCCOCC(=O)O; Aib = CC(C)(N)C(=O)O; OEG = OEG spacer
I only need the number, in pM, no unit after it.

Answered examples (3):
Y[Aib]EGTFTSDYSI[Aib]LEKQAE[Aib]AFVEWLIKGGPSEGASLRHYYNWLTRQRY-NH2 (not fully specified (residue 28); also: TFA salt) [Compound 278]	140
Y[Aib]EGTFTSDYSI[Aib]LEKQAQ[Aib]AFVEWLIK([AEEA-AEEA-γGlu-γGlu-γGlu-γGlu-C20 diacid])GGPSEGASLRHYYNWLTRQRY-NH2 (also: TFA salt) [Compound 287]	340
YXEGTFTSDYSIXLEKQAQXAFVQWLIKGGPSEGASLRHYYNWLTRQRY (Aib at 2, 13, 20; K28 side chain acylated with C18DA-gGlu-gGlu-gGlu-gGlu-gGlu-gGlu-eLys; C-terminal amide (NH2)) [Compound 265]	390

Please give measured EC50 hGIPR 0.5% hP (CreLuc) of the following entry: Y[Aib]EGTFTSDYSI[Aib]LEKQAQ[Aib]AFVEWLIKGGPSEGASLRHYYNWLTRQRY-NH2 (not fully specified (residue 28); also: TFA salt) [Compound 295] 300

Identify the reported EC50 hGIPR 0.5% hP (CreLuc) for the following entry. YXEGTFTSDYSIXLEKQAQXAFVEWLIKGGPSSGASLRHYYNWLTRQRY (Aib at 2, 13, 20; K28 side chain acylated with C18DA-gGlu-gGlu-gGlu-gGlu-gGlu-gGlu-eLys; C-terminal amide (NH2)) [Compound 259] 220

Please report the measured EC50 hGIPR 0.5% hP (CreLuc) for Y[Aib]EGTFTSDYSI[Aib]LEKQAQ[Aib]AFVEWLIK([OEG-OEG-Glu-Glu-Glu-C18 diacid])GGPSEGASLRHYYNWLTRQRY-NH2 (also: TFA salt) [Compound 298] 130

Give EC50 hGIPR 0.5% hP (CreLuc) for Y[Aib]EGTFTSDYSI[Aib]LEKQAQ[Aib]EFVEWLIK([AEEA-AEEA-γGlu-γGlu-γGlu-C20 diacid])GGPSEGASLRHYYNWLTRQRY-NH2 (also: TFA salt) [Compound 273] 380

Every entry's value here was drawn from patent US20240247080A1.
